Exercise: state measured CC50 at 4 days for each of the compounds provided.
- Assay Remarks: Compound cytotoxicity, XTT-based colorimetric assay
- Assay type: cell-based
- Test Parameters: human; uninfected MT2 cells, day 4, XTT; read-out: CC50

What CC50 at 4 days value was documented for this compound, CC1(F)CCN(CCn2nc(NS(C)(=O)=O)c3c(Cl)ccc(-n4c([C@H](Cc5cc(F)cc(F)c5)NC(=O)Cn5nc(C(F)F)c6c5C(F)(F)[C@@H]5C[C@H]65)nc5nc(C6CCC(F)(F)CC6)cc(C(F)F)c5c4=O)c32)CC1 (atropisomer, axis not shown; (P)) ?
> 50 nM

What CC50 at 4 days value was documented for this compound, COCCCn1nc(NS(C)(=O)=O)c2c(Cl)ccc(-n3c([C@H](Cc4cc(F)cc(F)c4)NC(=O)Cn4nc(C(F)F)c5c4C(F)(F)[C@@H]4C[C@H]54)nc4nc(C5CCC(F)(F)CC5)cc(NCCN5CCC(C)(C)CC5)c4c3=O)c21 (atropisomer, axis not shown; (P)) ?
> 20 nM

###

- Assay Remarks: Compound cytotoxicity, XTT-based colorimetric assay
- Assay type: cell-based
- Test Parameters: human; uninfected MT2 cells, day 4, XTT; read-out: CC50
- Experimental: Compound cytotoxicity and the corresponding CC50 values were determined using the same protocol as described in the antiviral assay except that uninfected cells were used. Cytotoxicity was assessed on day 4 in uninfected MT2 cells by using an XTT (2,3-bis[2-Methoxy-4-nitro-5-sulfophenyl]-2H-tetrazolium-5-carboxyanilide inner salt)-based colorimetric assay (Sigma-Aldrich, St Louis, Mo).
Endpoint: CC50 at 4 days

What CC50 at 4 days value was documented for this molecule, Cc1cc(C2CCC(F)(F)CC2)nc2nc([C@H](Cc3cc(F)cc(F)c3)NC(=O)Cn3nc(C4CC4)c4c3C[C@@H]3C[C@H]43)n(-c3ccc(Cl)c4c(NS(C)(=O)=O)nn([C@H](C)C(=O)N5C[C@@H](C)O[C@@H](C)C5)c34)c(=O)c12 (relative stereo) ?
> 20 nM

What CC50 at 4 days value was documented for this molecule, CC1(F)CCN(CCn2nc(NS(C)(=O)=O)c3c(Cl)ccc(-n4c([C@H](Cc5cc(F)cc(F)c5)NC(=O)Cn5nc(C(F)F)c6c5C(F)(F)[C@@H]5C[C@H]65)nc5nc(C6CCC(F)(F)CC6)ccc5c4=O)c32)C1 (stereo partly shown) ?
> 50 nM

What CC50 at 4 days value was documented for this molecule, CS(=O)(=O)Nc1nn(CCN2CCC(C(F)(F)F)C2)c2c(-n3c([C@H](Cc4cc(F)cc(F)c4)NC(=O)Cn4nc(C(F)F)c5c4C(F)(F)[C@@H]4C[C@H]54)nc4nc(C5CCC(F)(F)CC5)ccc4c3=O)ccc(Cl)c12 (stereo partly shown) ?
> 50 nM

What CC50 at 4 days value was documented for this molecule, Cc1cc(C2(F)CCC(F)(F)CC2)nc2nc([C@H](Cc3cc(F)cc(F)c3)NC(=O)Cn3nc(C(F)F)c4c3C(F)(F)[C@@H]3C[C@H]43)n(-c3ccc(Cl)c4c(NS(C)(=O)=O)nn(CCN5CCO[C@H](C(C)C)C5)c34)c(=O)c12 (atropisomer, axis not shown; (P)) ?
> 20 nM

What CC50 at 4 days value was documented for this molecule, Cc1cc(C2CCC(F)(F)CC2)nc2nc([C@H](Cc3cc(F)cc(F)c3)NC(=O)Cn3nc(C4CC4)c4c3C[C@@H]3C[C@H]43)n(-c3ccc(Cl)c4c(NS(C)(=O)=O)nn([C@@H](C)CN5CC(C)(C)OC(C)(C)C5)c34)c(=O)c12 (relative stereo) ?
> 20 nM

What CC50 at 4 days value was documented for this molecule, Cc1cc(C2CCC(F)(F)CC2)nc2nc([C@H](Cc3cc(F)cc(F)c3)NC(=O)Cn3nc(C4CC4)c4c3C[C@@H]3C[C@H]43)n(-c3ccc(Cl)c4c(NS(C)(=O)=O)nn(CC5(N6C[C@@H](C)O[C@@H](C)C6)CC5)c34)c(=O)c12 (relative stereo) ?
> 20 nM

What CC50 at 4 days value was documented for this molecule, Cc1cc(C2(C)CCC(F)(F)CC2)nc2nc([C@H](Cc3cc(F)cc(F)c3)NC(=O)Cn3nc(C4CC4)c4c3C[C@@H]3C[C@H]43)n(-c3ccc(Cl)c4c(NS(C)(=O)=O)nn(CCN5C[C@@H](C)O[C@@H](C)C5)c34)c(=O)c12 (atropisomer, axis not shown; (P)) ?
> 20 nM
